# system: Aurora A (Homo sapiens)
# assay-text: Aurora A kinase activity assay (Kemptide substrate, Kinase-Glo residual ATP)
# assay-conditions: recombinant Aurora A 10 nM, ATP 1 μM, Kemptide 100 μM, 30° C. 1 hour
quantity-name: IC50 (nM)

Known results for molecules:
molecule	unit-label	IC50
CCN(CC)CCOc1cc(Nc2nccc(C(=O)NC3CC4CCC3(C)C4(C)C)n2)ccc1OC (stereo not shown)	nM	11
CC1(C)C2CCC1(C)C(NC(=O)c1ccnc(Nc3ccc(N4CCN(CC#N)CC4)cc3)n1)C2 (stereo not shown)	nM	12

P. COc1ccc(Nc2nccc(C(=O)NC3CC4CCC3(C)C4(C)C)n2)cc1OCCN1CCCC1 (stereo not shown)
Q. CC1(C)C2CCC1(C)C(NC(=O)c1ccnc(Nc3ccc(N4CCN(CCO)CC4)cc3)n1)C2 (stereo not shown)
Field: lower IC50 | Options: P / Q Mark your selection by writing its label.
Q
(Q: 10 nM, P: 18 nM)

A. CC1(C)C2CCC1(C)C(NC(=O)c1ccnc(Nc3cccc(NCC#N)c3)n1)C2 (stereo not shown)
B. CC1(C)C2CCC1(C)C(NC(=O)c1ccnc(Nc3cccc(NCCCN4CCOCC4)c3)n1)C2 (stereo not shown) [Compound 98]
Field: lower IC50 | Options: A / B Mark your selection by writing its label.
A
(A: 19 nM, B: 39 nM)

* * *

# Tested on: human colon carcinoma cell line, HCT116
# assay-text: Cancer cell proliferation, SRB assay
# Assay type: cell-based
# assay-conditions: Homo sapiens, HCT-116, 48 h, HCT116, 48 hours, concentration inhibiting cancer cell proliferation by 50%
quantity-name: EC50 (nM)

compound	system	EC50, nM
CC1(C)C2CCC1(C)C(NC(=O)c1ccnc(Nc3cccc(NCCCN4CCOCC4)c3)n1)C2 (stereo not shown)	human colon carcinoma cell line, HCT116	3100

P. CCN1CCN(c2ccc(Nc3nccc(C(=O)NC4CC5CCC4(C)C5(C)C)n3)cc2)CC1 (stereo not shown)
Q. CC1(C)C2CCC1(C)C(NC(=O)c1ccnc(Nc3ccc(NCCN4CCCC4)cc3)n1)C2 (stereo not shown)
R. COc1ccc(Nc2nccc(C(=O)NC3CC4CCC3(C)C4(C)C)n2)cc1OCCN1CCCC1 (stereo not shown)
Arrange these compounds by their EC50, starting with the largest number. Please express your ranking as an ordered list of the labels.
R, Q, P
(R: 1200 nM, Q: 800 nM, P: 500 nM)

* * *

# system: Aurora A (Homo sapiens, UniProt O14965)
# Sequence (O14965 whole entry): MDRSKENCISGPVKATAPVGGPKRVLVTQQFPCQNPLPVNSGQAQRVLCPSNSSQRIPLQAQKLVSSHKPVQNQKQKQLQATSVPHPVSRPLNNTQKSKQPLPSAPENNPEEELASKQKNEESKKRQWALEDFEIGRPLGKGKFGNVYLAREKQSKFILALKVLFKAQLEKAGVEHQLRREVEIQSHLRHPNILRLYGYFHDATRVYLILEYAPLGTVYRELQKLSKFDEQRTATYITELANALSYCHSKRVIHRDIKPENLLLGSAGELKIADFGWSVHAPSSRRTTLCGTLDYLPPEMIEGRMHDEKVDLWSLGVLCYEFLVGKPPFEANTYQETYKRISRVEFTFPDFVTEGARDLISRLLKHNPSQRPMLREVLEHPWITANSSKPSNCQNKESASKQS
# assay-text: Aurora A kinase activity assay (Kemptide substrate, Kinase-Glo residual ATP)
# assay-conditions: recombinant Aurora A 10 nM, ATP 1 μM, Kemptide 100 μM, 30° C. 1 hour
pIC50: −log10 of the molar value.
quantity-name: pIC50

Known results for molecules:
molecule	measurement
CN(C)CCNc1ccc(Nc2nccc(C(=O)NC3CC4CCC3(C)C4(C)C)n2)cc1 (centres unmarked) [Compound 86]	7.06
CCN1CCN(c2ccc(Nc3nccc(C(=O)NC4CC5CCC4(C)C5(C)C)n3)cc2)CC1 (centres unmarked) [Compound 105]	7.77
COc1ccc(Nc2nccc(C(=O)NC3CC4CCC3(C)C4(C)C)n2)cc1OCCN1CCOCC1 (centres unmarked) [Compound 99]	7.64
CCCN1CCN(c2ccc(Nc3nccc(C(=O)NC4CC5CCC4(C)C5(C)C)n3)cc2)CC1 (centres unmarked) [Compound 110]	7.70

a. CC(C)N1CCN(c2ccc(Nc3nccc(C(=O)NC4CC5CCC4(C)C5(C)C)n3)cc2)CC1 (centres unmarked) [Compound 109]
b. CC1(C)C2CCC1(C)C(NC(=O)c1ccnc(Nc3cccc(NCCCN4CCOCC4)c3)n1)C2 (centres unmarked) [Compound 97]
c. CC(C)CN1CCN(c2ccc(Nc3nccc(C(=O)NC4CC5CCC4(C)C5(C)C)n3)cc2)CC1 (centres unmarked) [Compound 115]
d. CC1(C)C2CCC1(C)C(NC(=O)c1ccnc(Nc3ccc(NCCN4CCCC4)cc3)n1)C2 (centres unmarked) [Compound 88]
Arrange these molecules by their pIC50, starting with the largest number. Please express your ranking as an ordered list of the labels.
d, a, b, c

* * *

# Test system: human colon carcinoma cell line, HCT116
# assay-text: Cancer cell proliferation, SRB assay
# Format: cell-based
# assay-conditions: Homo sapiens, HCT-116, 48 h, HCT116, 48 hours, concentration inhibiting cancer cell proliferation by 50%
quantity-name: EC50 (nM)

Known results for compounds:
compound	EC50, nM
CC(C)CN1CCN(c2ccc(Nc3nccc(C(=O)NC4CC5CCC4(C)C5(C)C)n3)cc2)CC1 (centres unmarked)	3100
CC1(C)C2CCC1(C)C(NC(=O)c1ccnc(Nc3ccc(N4CCCCC4)cc3)n1)C2 (centres unmarked)	1600

a. CN(C)CCNc1ccc(Nc2nccc(C(=O)NC3CC4CCC3(C)C4(C)C)n2)cc1 (centres unmarked)
b. CC1(C)C2CCC1(C)C(NC(=O)c1ccnc(Nc3cccc(NCC#N)c3)n1)C2 (centres unmarked)
Field: lower EC50 | Options: a / b Mark your selection by writing its label.
a

* * *

# System: human fetal cell line, MRC-5
# assay-text: Normal cell proliferation, SRB assay
# Type: cell-based
# assay-conditions: human, 48 h
quantity-name: CC50 (µM)
Entry rule: numbers only, all in µM.

Consider the compound shown here: CC1(C)C2CCC1(C)C(NC(=O)c1ccnc(Nc3cccc(NCCCN4CCOCC4)c3)n1)C2 (stereo not shown) What is its recorded CC50?
52.6

* * *

# Tested on: human fetal cell line, MRC-5
# assay-text: Normal cell proliferation, SRB assay
# Format: cell-based
quantity-name: CC50 (µM)
Entry rule: numbers only, all in µM.

Consider the compound shown here: CCN(CC)CCOc1cc(Nc2nccc(C(=O)NC3CC4CCC3(C)C4(C)C)n2)ccc1OC (stereo not shown) What is its recorded CC50?
33

* * *

# Tested on: human colon carcinoma cell line, HCT116
# assay-text: Cancer cell proliferation, SRB assay
# Format: cell-based
# assay-conditions: Homo sapiens, HCT-116, 48 h, HCT116, 48 hours, concentration inhibiting cancer cell proliferation by 50%
quantity-name: EC50 (nM)

molecule	measurement
CC1(C)C2CCC1(C)C(NC(=O)c1ccnc(Nc3ccc(N4CCN(CCO)CC4)cc3)n1)C2 (stereo not shown) [Compound 108]	1900
CCCN1CCN(c2ccc(Nc3nccc(C(=O)NC4CC5CCC4(C)C5(C)C)n3)cc2)CC1 (stereo not shown) [Compound 110]	1900

I. CC(C)N1CCN(c2ccc(Nc3nccc(C(=O)NC4CC5CCC4(C)C5(C)C)n3)cc2)CC1 (stereo not shown) [Compound 109]
II. CC1(C)C2CCC1(C)C(NC(=O)c1ccnc(Nc3ccc(N4CCN(CC#N)CC4)cc3)n1)C2 (stereo not shown) [Compound 116]
Field: lower EC50 | Options: I / II Mark your selection by writing its label.
II
(II: 1700 nM, I: 2800 nM)

* * *

# assay-text: Normal cell proliferation, SRB assay
# Type: cell-based, human
# assay-conditions: human, CC50(μM)
The reader will find reported CC50 at 48 h values listed item by item below.
Entry rule: numbers only, all in µM.

Consider the compound shown here: CC(C)CN1CCN(c2ccc(Nc3nccc(C(=O)NC4CC5CCC4(C)C5(C)C)n3)cc2)CC1 (stereo not drawn) [Compound 115] What is its recorded CC50 at 48 h?
100

Consider the compound shown here: CC1(C)C2CCC1(C)C(NC(=O)c1ccnc(Nc3ccc(NCCN4CCCC4)cc3)n1)C2 (stereo not drawn) [Compound 88] What is its recorded CC50 at 48 h?
24.5

Consider the compound shown here: CCCN1CCN(c2ccc(Nc3nccc(C(=O)NC4CC5CCC4(C)C5(C)C)n3)cc2)CC1 (stereo not drawn) [Compound 110] What is its recorded CC50 at 48 h?
32

Consider the compound shown here: CC1(C)C2CCC1(C)C(NC(=O)c1ccnc(Nc3ccc(N4CCN(CC#N)CC4)cc3)n1)C2 (stereo not drawn) [Compound 116] What is its recorded CC50 at 48 h?
26.6

Consider the compound shown here: COc1ccc(Nc2nccc(C(=O)NC3CC4CCC3(C)C4(C)C)n2)cc1OCCN1CCOCC1 (stereo not drawn) [Compound 99] What is its recorded CC50 at 48 h?
52

Consider the compound shown here: CC1(C)C2CCC1(C)C(NC(=O)c1ccnc(Nc3ccc(N4CCN(CCO)CC4)cc3)n1)C2 (stereo not drawn) [Compound 108] What is its recorded CC50 at 48 h?
56

Consider the compound shown here: COc1ccc(Nc2nccc(C(=O)NC3CC4CCC3(C)C4(C)C)n2)cc1OCCN1CCCC1 (stereo not drawn) [Compound 107] What is its recorded CC50 at 48 h?
46

Consider the compound shown here: CC1(C)C2CCC1(C)C(NC(=O)c1ccnc(Nc3ccc(N4CCCCC4)cc3)n1)C2 (stereo not drawn) [Compound 85] What is its recorded CC50 at 48 h?
38
